# Target or system: human adrenergic-α2A receptor (Homo sapiens, UniProt P08913)
# Construct: expressed in transfected cells; membrane preparation
# Sequence (P08913 1-465): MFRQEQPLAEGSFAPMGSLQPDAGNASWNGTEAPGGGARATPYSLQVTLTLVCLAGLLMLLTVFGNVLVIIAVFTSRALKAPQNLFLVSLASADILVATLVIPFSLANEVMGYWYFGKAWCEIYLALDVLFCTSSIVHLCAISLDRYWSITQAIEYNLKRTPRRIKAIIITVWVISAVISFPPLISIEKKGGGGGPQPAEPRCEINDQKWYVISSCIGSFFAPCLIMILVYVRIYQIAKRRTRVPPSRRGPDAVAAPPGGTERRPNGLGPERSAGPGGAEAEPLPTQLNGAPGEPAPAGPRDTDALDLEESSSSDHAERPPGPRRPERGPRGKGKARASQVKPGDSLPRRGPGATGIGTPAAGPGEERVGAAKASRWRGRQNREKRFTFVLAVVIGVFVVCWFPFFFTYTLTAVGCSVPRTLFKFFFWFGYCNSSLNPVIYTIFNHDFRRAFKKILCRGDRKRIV
# Assay: Radioligand binding experiment for α2A-adrenoceptor ([3H]-raulwolscine competition, CHO cell membranes)
# Particulars: [3H]raulwolscine 1 nM, membranes of CHO cells transfected with human α2A receptor; read-out: pIC50 α2A (converted)
# Protocol: The interaction of the compounds of Formula (I) with α2C-adrenoceptor receptors was assessed in in vitro radioligand binding experiments. […] When equilibrium of binding is reached, the receptor bound radioactivity is separated from the non-bound radioactivity, and the receptor- or transporter-bound activity is counted. The interaction of the test compounds with the receptor is assessed in competition binding experiments. […]
Quantity measured: IC50 (nM)

Recorded IC50, per entry:
Compound: CN1CCCN(Cc2ccc(-n3cnn(CC4CCN(CCOc5ccccc5)CC4)c3=O)cc2)CC1
IC50, nM: 63.1

Compound: O=C1c2ccccc2C(=O)N1CCCn1cnn(CC2CCN(CCOc3ccccc3)CC2)c1=O
IC50, nM: 25.1

Compound: O=c1n(-c2ccc(CN3CCCCC3)cc2)cnn1CC1CCN(CCOc2ccccc2)CC1
IC50, nM: 50.1

1 = N#Cc1cccc(NCCCN2CCN(CCn3ncn(CC4CCN(CCOc5ccccc5)CC4)c3=O)CC2)c1
2 = O=c1n(-c2ccc(CNCc3ccccc3)cc2)cnn1CCNCCOc1ccccc1
Query: # min-compare on IC50 between 1 and 2 Reply with the label of the item you choose.
Reply: 2
(2: 25.1 nM, 1: 63.1 nM)

I = C/C(=C\c1ccccc1)CN1CCC(n2cnn(CCNCCOc3ccccc3)c2=O)CC1 [compound 28]
II = NCc1ccc(Cn2cnn(C3CCN(CCOc4ccccc4)CC3)c2=O)cc1
Query: Lab note: check whether I or II shows the higher recorded IC50. Indicate which entry you chose by stating its label.
Reply: I

###

# Target or system: human adrenergic-α2A receptor (Homo sapiens)
# Construct: expressed in transfected cells; membrane preparation
# Assay: Radioligand binding experiment for α2A-adrenoceptor ([3H]-raulwolscine competition, CHO cell membranes)
# Particulars: [3H]raulwolscine 1 nM, membranes of CHO cells transfected with human α2A receptor; read-out: pIC50 α2A (converted)
# Method: The interaction of the compounds of Formula (I) with α2C-adrenoceptor receptors was assessed in in vitro radioligand binding experiments. […] When equilibrium of binding is reached, the receptor bound radioactivity is separated from the non-bound radioactivity, and the receptor- or transporter-bound activity is counted. The interaction of the test compounds with the receptor is assessed in competition binding experiments. […]
Quantity measured: IC50 (nM)

Compound structure string: O=c1n(CC2CCN(CCOc3ccccc3)CC2)cnn1CCN1CCN(Cc2cc3ccccc3s2)CC1
Target or system: human adrenergic-α2A receptor (Homo sapiens)
Unit abbrev: nM
IC50: 50.1
--
Compound structure string: O=c1n(-c2ccc3c(c2)CCNC3)cnn1CCNCCOc1ccccc1
Target or system: human adrenergic-α2A receptor (Homo sapiens)
Unit abbrev: nM
IC50: 50.1
--
Compound structure string: O=c1n(-c2ccc(CN3CCCC3)cc2)cnn1CC1CCN(CCOc2ccccc2)CC1
Target or system: human adrenergic-α2A receptor (Homo sapiens)
Unit abbrev: nM
IC50: 39.8
